Target: CDK12/CycK (Homo sapiens)
Sequence (Q9NYV4 with tags, fused parts or gaps): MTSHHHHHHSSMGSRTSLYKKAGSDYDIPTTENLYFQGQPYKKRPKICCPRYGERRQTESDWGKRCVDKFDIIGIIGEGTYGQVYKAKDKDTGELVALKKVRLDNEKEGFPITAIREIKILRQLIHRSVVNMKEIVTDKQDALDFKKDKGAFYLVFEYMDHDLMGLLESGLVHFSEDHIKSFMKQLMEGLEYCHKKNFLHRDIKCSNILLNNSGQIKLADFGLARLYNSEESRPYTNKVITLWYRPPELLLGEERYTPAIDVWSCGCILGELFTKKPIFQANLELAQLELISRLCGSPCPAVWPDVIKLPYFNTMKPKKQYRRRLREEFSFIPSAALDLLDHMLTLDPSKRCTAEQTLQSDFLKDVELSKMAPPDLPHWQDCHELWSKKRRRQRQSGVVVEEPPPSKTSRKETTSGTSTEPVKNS
Sequence (O75909 1-300 partner limits assumed): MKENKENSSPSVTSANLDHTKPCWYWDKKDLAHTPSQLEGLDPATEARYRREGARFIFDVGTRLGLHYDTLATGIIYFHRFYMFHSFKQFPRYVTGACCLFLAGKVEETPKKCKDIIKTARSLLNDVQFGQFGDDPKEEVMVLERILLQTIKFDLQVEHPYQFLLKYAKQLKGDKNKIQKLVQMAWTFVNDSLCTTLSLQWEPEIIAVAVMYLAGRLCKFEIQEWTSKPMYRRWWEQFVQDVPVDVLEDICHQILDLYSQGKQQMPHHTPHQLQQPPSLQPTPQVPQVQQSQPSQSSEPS
Protocol notes: CDK12/CycK high ATP kinase assay (TR-FRET, 2 mM ATP)
Condition label: 2 mM ATP (high ATP); median; read-out: CDK12/CyclinK, 2 mM ATP (high ATP), IC50-[mol/l] (median)
Readout label: IC50 (µM)
Lab book: enter the figure in µM, no units written.

{"Compound": "FC(F)(F)c1cnn2c(NCc3nnc(-c4ccccc4)[nH]3)nc(N3CCOCC3)nc12 [Example 427]", "Target": "CDK12/CycK (Homo sapiens)", "Unit text": "µM", "IC50": 1.86}

stdin: # IC50 lookup, item COc1ccc2[nH]c(CNc3nc(N4C[C@@H](C)N[C@@H](C)C4)nc4c(Br)cnn34)nc2c1 [Example 205]
stdout: 7.97

stdin: Name the recorded IC50 for Brc1cnn2c(NCc3nc4ccccc4[nH]3)nc(N3CCCC3)nc12 [Example 47] .
stdout: 7.19

stdin: So what's the measured IC50 for this one? C[C@@H]1CN(c2nc(NCc3nnc(-c4ccccc4)[nH]3)n3ncc(Br)c3n2)C[C@H](C)N1 [Example 127]
stdout: 9.71

====

System: CAL-120, human breast adenocarcinoma cells
Protocol notes: Proliferation assay CAL-120 (crystal violet, 4 days)
Assay type: cell-based
Condition label: Homo sapiens, CAL-120, 96 h, CAL-120 cells, median, read-out: Prolif-CAL-120, IC50-[mol/l] (median)
Criterion met if IC50 is below 40 nM. Criterion not met if not; exact matches included in Criterion not met.

{"Compound": "N[C@H]1CN(c2nc(NCc3nc4ccccc4[nH]3)n3ncc(Br)c3n2)CC12CC2", "Target": "CAL-120, human breast adenocarcinoma cells", "Cat": "Criterion met"}
{"Compound": "Fc1ccc(-c2nnc(CNc3nc(N4CCOCC4)nc4c(Br)cnn34)[nH]2)c(F)c1", "Target": "CAL-120, human breast adenocarcinoma cells", "Cat": "Criterion not met"}
{"Compound": "CN1CC2CCC(C1)N2c1nc(NCc2nc3ccccc3[nH]2)n2ncc(Br)c2n1", "Target": "CAL-120, human breast adenocarcinoma cells", "Cat": "Criterion not met"}

stdin: # strict comparison: is reported IC50 < 40 nM? input = CN1CCN(c2nc(NCc3nc4c(F)c(F)ccc4[nH]3)n3ncc(C4CC4(F)F)c3n2)CC1 (centres unmarked)
stdout: Criterion met

stdin: Consider OCC1COCCN1c1nc(NCc2nc3ccccc3[nH]2)n2ncc(Br)c2n1 (centres unmarked) . Does its IC50 lie strictly below 40 nM?
stdout: Criterion met

stdin: For this compound, is IC50 lower than 40 nM? Fc1ccc2[nH]c(CNc3nc(N4CCOCC4)nc4c(-c5nccs5)cnn34)nc2c1F
stdout: Criterion not met

stdin: Criterion: IC50 strictly below 40 nM. Is it met by NC12CC1CN(c1nc(NCc3nc4ccccc4[nH]3)n3ncc(Br)c3n1)C2 (centres unmarked) ?
stdout: Criterion met

stdin: Quick check: does COC(=O)C1CCN(c2nc(NCc3nnc(-c4ccccc4)[nH]3)n3ncc(Br)c3n2)CC1 have IC50 under 40 nM?
stdout: Criterion not met

stdin: Decide: IC50 of Fc1cccc2[nH]c(CNc3nc(N4CCOCC4)nc4c(C(F)(F)F)cnn34)nc12 strictly below 40 nM?
stdout: Criterion met

stdin: Bench note: check whether Fc1cccc(-c2nnc(CNc3nc(N4CCOCC4)nc4c(C(F)(F)F)cnn34)[nH]2)c1 shows IC50 below 40 nM
stdout: Criterion met

stdin: Just wondering, is IC50 of NCCOCCOCCNc1nc(NCc2nc3ccccc3[nH]2)n2ncc(Br)c2n1 below 40 nM?
stdout: Criterion not met

stdin: Dear reviewer, please state whether CN1CCN(c2nc(NCc3nc4cc(F)c(Cl)cc4[nH]3)n3ncc(C4CC4)c3n2)CC1 has IC50 strictly beneath 40 nM.
stdout: Criterion met

stdin: Consider Brc1cnn2c(NCc3nc4ccccc4[nH]3)nc(NCCN3CCCC3)nc12 . Does its IC50 lie strictly below 40 nM?
stdout: Criterion not met

stdin: Is 40 nM strictly greater than the compound's reported IC50? compound: COc1cccc2[nH]c(CNc3nc(N4C[C@H]5C[C@@H]4CO5)nc4c(C5CC5)cnn34)nc12
stdout: Criterion met

stdin: Decide: IC50 of Fc1cccc2[nH]c(CNc3nc(N4CCOCC4)nc4c(C5CC5)cnn34)nc12 strictly below 40 nM?
stdout: Criterion met

stdin: is_below(IC50, 40 nM) for CN1CCN(c2nc(NCc3nc4c(F)c(F)ccc4[nH]3)n3ncc(Cl)c3n2)CC1 ?
stdout: Criterion met

stdin: # TODO verify IC50 < 40 nM strictly for this compound: COC(=O)C1CCN(c2nc(NCc3nc4ccccc4[nH]3)n3ncc(Br)c3n2)CC1
stdout: Criterion met

====

As shown below, each of these molecules has a reported (IC50 CDK12 high ATP) to (Degradation DC50 CDK12) ratio value.
Target: CDK12 (nuclear staining in CAL-120 cells) (Homo sapiens, UniProt Q9NYV4)
Construct: endogenous in cells; host or cells: CAL-120 human breast cancer cells (DSMZ ACC 459)
Sequence (Q9NYV4 whole entry): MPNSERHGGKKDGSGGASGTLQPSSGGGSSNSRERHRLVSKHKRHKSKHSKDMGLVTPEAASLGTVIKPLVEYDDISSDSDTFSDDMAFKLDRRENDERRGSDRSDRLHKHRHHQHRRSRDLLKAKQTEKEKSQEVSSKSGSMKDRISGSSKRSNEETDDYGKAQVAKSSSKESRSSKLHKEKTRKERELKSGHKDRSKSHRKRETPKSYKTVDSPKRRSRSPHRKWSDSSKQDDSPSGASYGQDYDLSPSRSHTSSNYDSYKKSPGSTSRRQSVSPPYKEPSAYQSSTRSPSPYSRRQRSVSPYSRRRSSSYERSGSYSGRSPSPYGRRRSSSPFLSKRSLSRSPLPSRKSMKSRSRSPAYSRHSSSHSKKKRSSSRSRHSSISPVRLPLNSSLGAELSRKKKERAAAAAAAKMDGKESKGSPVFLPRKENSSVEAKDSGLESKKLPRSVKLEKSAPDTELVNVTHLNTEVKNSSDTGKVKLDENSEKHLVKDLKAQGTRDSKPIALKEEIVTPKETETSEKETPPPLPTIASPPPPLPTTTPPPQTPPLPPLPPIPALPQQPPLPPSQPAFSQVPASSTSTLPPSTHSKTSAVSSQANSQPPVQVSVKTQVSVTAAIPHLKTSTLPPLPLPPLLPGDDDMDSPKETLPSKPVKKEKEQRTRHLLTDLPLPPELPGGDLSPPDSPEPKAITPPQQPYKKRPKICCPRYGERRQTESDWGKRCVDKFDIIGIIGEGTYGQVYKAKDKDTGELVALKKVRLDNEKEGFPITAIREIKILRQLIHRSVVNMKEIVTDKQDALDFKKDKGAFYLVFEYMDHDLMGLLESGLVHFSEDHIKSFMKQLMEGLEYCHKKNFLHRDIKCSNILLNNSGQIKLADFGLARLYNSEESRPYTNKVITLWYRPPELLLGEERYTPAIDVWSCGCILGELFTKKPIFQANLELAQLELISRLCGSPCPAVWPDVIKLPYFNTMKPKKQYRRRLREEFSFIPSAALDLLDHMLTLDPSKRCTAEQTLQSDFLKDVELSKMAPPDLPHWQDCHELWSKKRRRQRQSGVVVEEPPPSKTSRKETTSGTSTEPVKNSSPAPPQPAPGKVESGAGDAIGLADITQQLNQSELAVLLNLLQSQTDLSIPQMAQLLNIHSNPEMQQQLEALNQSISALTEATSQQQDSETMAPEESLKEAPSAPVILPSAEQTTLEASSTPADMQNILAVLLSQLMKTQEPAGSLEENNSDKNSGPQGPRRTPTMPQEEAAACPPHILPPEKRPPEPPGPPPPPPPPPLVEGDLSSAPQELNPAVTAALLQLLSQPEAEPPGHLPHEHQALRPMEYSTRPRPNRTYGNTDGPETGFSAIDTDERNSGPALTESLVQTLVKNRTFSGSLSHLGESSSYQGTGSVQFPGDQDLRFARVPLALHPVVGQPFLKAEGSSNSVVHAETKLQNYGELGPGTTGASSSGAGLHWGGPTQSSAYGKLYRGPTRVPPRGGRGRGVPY
Sequence (O75909 whole entry partner): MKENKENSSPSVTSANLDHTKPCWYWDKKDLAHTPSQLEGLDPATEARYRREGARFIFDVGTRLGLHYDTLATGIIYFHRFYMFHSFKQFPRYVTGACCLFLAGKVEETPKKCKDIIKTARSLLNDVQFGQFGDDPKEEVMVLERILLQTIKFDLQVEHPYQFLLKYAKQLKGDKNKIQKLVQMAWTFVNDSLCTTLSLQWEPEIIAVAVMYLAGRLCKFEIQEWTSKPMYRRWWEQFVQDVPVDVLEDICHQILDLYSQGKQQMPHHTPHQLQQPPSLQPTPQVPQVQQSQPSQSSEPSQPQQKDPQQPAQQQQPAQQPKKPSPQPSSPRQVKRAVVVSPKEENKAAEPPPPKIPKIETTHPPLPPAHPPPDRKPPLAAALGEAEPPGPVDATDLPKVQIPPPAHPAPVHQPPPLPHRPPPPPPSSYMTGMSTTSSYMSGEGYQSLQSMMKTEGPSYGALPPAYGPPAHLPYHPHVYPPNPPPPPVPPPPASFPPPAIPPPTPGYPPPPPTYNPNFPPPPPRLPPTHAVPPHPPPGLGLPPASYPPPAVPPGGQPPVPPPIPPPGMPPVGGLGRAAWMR
Protocol notes: CDK12 nuclear protein level: immunofluorescence/high content analysis (CAL-120)
Format: cell-based
Condition label: ratio of IC50 CDK12 high ATP kinase assay to DC50 CDK12 degradation (IF, CAL-120)
No unit in the answer, only the number.

{"Molecule": "C[C@@H]1CN(c2nc(NCc3nnc(-c4ccccc4)[nH]3)n3ncc(Br)c3n2)CCN1C.O=CO", "Target": "CDK12 (nuclear staining in CAL-120 cells) (Homo sapiens, UniProt Q9NYV4)", "Value": 2547}
{"Molecule": "CC1CN(C)CCN1c1nc(NCc2nc3ccccc3[nH]2)n2ncc(Br)c2n1 (single isomer, unassigned; enantiomer 1) [Example 260]", "Target": "CDK12 (nuclear staining in CAL-120 cells) (Homo sapiens, UniProt Q9NYV4)", "Value": 6819}
{"Molecule": "COc1cccc2nc(CNc3nc(N4CCOCC4)nc4c(-c5ccnnc5)cnn34)[nH]c12.O=C(O)C(F)(F)F", "Target": "CDK12 (nuclear staining in CAL-120 cells) (Homo sapiens, UniProt Q9NYV4)", "Value": 850}

stdin: Need (IC50 CDK12 high ATP) to (Degradation DC50 CDK12) ratio, item Brc1cnn2c(NCc3nc4ccccc4[nH]3)nc(N3C[C@H]4CC[C@@H]3CO4)nc12 (single isomer, unassigned; enantiomer 2) [Example 391]
stdout: 960

stdin: Entry under review: OC1(C(F)(F)F)CCN(c2nc(NCc3nc4ccccc4[nH]3)n3ncc(Br)c3n2)C1 (stereo not drawn) . Reported (IC50 CDK12 high ATP) to (Degradation DC50 CDK12) ratio?
stdout: 37

stdin: Fill in the blank: the reported (IC50 CDK12 high ATP) to (Degradation DC50 CDK12) ratio of Fc1cccc2[nH]c(CNc3nc(N4CCOCC4)nc4c(C5CC5)cnn34)nc12 is ____.
stdout: 460

stdin: What measured (IC50 CDK12 high ATP) to (Degradation DC50 CDK12) ratio goes with CN1CCN(c2nc(NCc3nc4c(F)c(F)ccc4[nH]3)n3ncc(Br)c3n2)CC1 ?
stdout: 8279

stdin: Which (IC50 CDK12 high ATP) to (Degradation DC50 CDK12) ratio reading was recorded for the molecule CN1C2CCC1CN(c1nc(NCc3nc4c(F)c(F)ccc4[nH]3)n3ncc(C(F)(F)F)c3n1)C2 ?
stdout: 734

stdin: What does the record list as (IC50 CDK12 high ATP) to (Degradation DC50 CDK12) ratio for OC[C@H]1CCCCN1c1nc(NCc2nnc(-c3ccccc3)[nH]2)n2ncc(Br)c2n1 ?
stdout: 998

stdin: State the recorded (IC50 CDK12 high ATP) to (Degradation DC50 CDK12) ratio for this entry: Brc1cnn2c(NCc3nc4ccccc4[nH]3)nc(N3CCN4CCC[C@H]4C3)nc12
stdout: 677

stdin: (IC50 CDK12 high ATP) to (Degradation DC50 CDK12) ratio lookup needed for c1ccc2[nH]c(CNc3nc(N4CCOCC4)nc4c(C5CCC5)cnn34)nc2c1 , thanks.
stdout: 294

stdin: Which (IC50 CDK12 high ATP) to (Degradation DC50 CDK12) ratio is listed for CCNc1nc(NCc2nc(-c3ccc(C)cc3)c[nH]2)n2ncc(Br)c2n1 ?
stdout: 55

stdin: Sample Brc1cnn2c(NCc3nc4ccccc4[nH]3)nc(N3C[C@H]4C[C@@H]3CN4)nc12 — what was its (IC50 CDK12 high ATP) to (Degradation DC50 CDK12) ratio?
stdout: 2588

stdin: Request the reported (IC50 CDK12 high ATP) to (Degradation DC50 CDK12) ratio associated with CN1CCN(c2nc(NCc3nc4cc(F)c(Cl)cc4[nH]3)n3ncc(Br)c3n2)CC1
stdout: 4722

====

# maps each entry to its pIC50
Target: CDK2/CycE (Homo sapiens, UniProt P24941)
Protocol notes: CDK2/CycE kinase assay (TR-FRET, 2 mM ATP)
Condition label: 2 mM ATP (high ATP); median; read-out: CDK2/CyclinE, 2 mM ATP (high ATP), IC50 (median)
Description: CDK2/CycE-inhibitory activity of compounds of the present invention was quantified employing the CDK2/CycE TR-FRET assay as described in the following paragraphs. […] The resulting mixture was incubated 1 h at 22° C. to allow the formation of complex between the phosphorylated biotinylated peptide and the detection reagents. Subsequently the amount of phosphorylated substrate was evaluated by measurement of the resonance energy transfer from the Eu-chelate to the streptavidine-XL. […]
# pIC50 = -log10(concentration in molar units)

Examples with answers:
{"Compound": "Brc1cnn2c(NCc3nc4ccccc4[nH]3)nc(N3C[C@@H]4C[C@H]3CO4)nc12", "Target": "CDK2/CycE (Homo sapiens, UniProt P24941)", "pIC50": 5.04}
{"Compound": "CC(C)(O)COc1nc(NCc2nc3ccccc3[nH]2)n2ncc(Br)c2n1", "Target": "CDK2/CycE (Homo sapiens, UniProt P24941)", "pIC50": 4.98}
{"Compound": "Fc1ccc2[nH]c(CNc3nc(N4C[C@H]5CC[C@@H](C4)N5)nc4c(C5CC5)cnn34)nc2c1F", "Target": "CDK2/CycE (Homo sapiens, UniProt P24941)", "pIC50": 4.76}

stdin: # query: pIC50 of entry Brc1cnn2c(NCc3nc4ccccc4[nH]3)nc(N3CCN4CCC3CC4)nc12
stdout: 5.74

stdin: Bench note: what pIC50 did CN(CC(C)(C)O)c1nc(NCc2nc3c(F)cccc3[nH]2)n2ncc(C3CC3)c2n1 show?
stdout: 5.69

stdin: // returns reported pIC50 for input CN1CCN(c2nc(NCc3nc4c(F)cccc4[nH]3)n3ncc(Br)c3n2)CC1
stdout: 5.22

stdin: Request the reported pIC50 associated with Cc1ccc2[nH]c(CNc3nc(N4C[C@H]5C[C@@H]4CO5)nc4c(Br)cnn34)nc2c1
stdout: 5.38

stdin: Record request: pIC50 value, item C[C@@H]1CN(c2nc(NCc3nc4ccccc4[nH]3)n3ncc(Br)c3n2)C[C@H](C)O1
stdout: 5.22
